Species on record: Rattus norvegicus
Test: DrugMatrix - Regimen: Daily Repeat
Assay type: toxicity, organism-based, Sprague-Dawley
Design: regimen Daily Repeat, gender Male, age 6-8 weeks
Conditions: in vivo, po, 0 mg/kg, 72 h, tissue Blood, route oral GAVAGE, dose level Control, time 3 day, vehicle 100 % SALINE
endpoint: MONOCYTE (%)
Answer with a number only, understood to be in %.

Cc1cc(CC(=O)O)n(C)c1C(=O)c1ccc(Cl)cc1 [ZOMEPIRAC] ... 0
CC(=O)OCC(CCn1cnc2cnc(N)nc21)COC(C)=O ... 1
Oc1ccccc1O ... 0

Input line: Given `CCCc1nn(C)c2c(=O)[nH]c(-c3cc(S(=O)(=O)N4CCN(C)CC4)ccc3OCC)nc12` , state its recorded MONOCYTE.
Output line: 1

----------
Species: Rattus norvegicus
Test: DrugMatrix - Regimen: Daily Repeat
Type: toxicity, organism-based, Sprague-Dawley
Design: regimen Daily Repeat, gender Male, age 6-8 weeks
Details: in vivo, po, 0 mg/kg, 72 h, tissue Plasma, route oral GAVAGE, dose level Control, time 3 day, vehicle .5 % CMC
endpoint: URIC ACID (mg/dL)
Answer with a number only, understood to be in mg/dL.

Example compounds with recorded URIC ACID:
CCOC(=O)[C@H](CCc1ccccc1)N[C@@H](C)C(=O)N1Cc2ccccc2C[C@H]1C(=O)O ... 1.28
CC(C)(Sc1cc(C(C)(C)C)c(O)c(C(C)(C)C)c1)Sc1cc(C(C)(C)C)c(O)c(C(C)(C)C)c1 [PROBUCOL] ... 1.63
COc1ccccc1OCC(O)COC(N)=O (stereo unspecified) [METHOCARBAMOL] ... 1.8
CCCCC1C(=O)N(c2ccccc2)N(c2ccccc2)C1=O [PHENYLBUTAZONE] ... 1.9
CC(C(=O)O)c1ccc(-c2ccccc2)c(F)c1 (stereo unspecified) [FLURBIPROFEN] ... 1.63

Input line: Given Cc1cnc(C(=O)NCCc2ccc(S(=O)(=O)NC(=O)NC3CCCCC3)cc2)cn1 [GLIPIZIDE] , state its recorded URIC ACID.
Output line: 1.28

Input line: Given C[C@@H](O)[C@H]1C(=O)N2C(C(=O)O)=C(S[C@@H]3CN[C@H](C(=O)N(C)C)C3)[C@H](C)[C@H]12 [MEROPENEM] , state its recorded URIC ACID.
Output line: 1.63

----------
Species: Rattus norvegicus
Assay: DrugMatrix - Regimen: Daily Repeat
Assay type: toxicity, organism-based, Sprague-Dawley
Design: regimen Daily Repeat, gender Male, age 6-8 weeks
Settings: in vivo, po, 0 mg/kg, 120 h, tissue Blood, route oral GAVAGE, dose level Control, time 5 day, vehicle 100 % WATER
endpoint: PLATELET COUNT (x10E3/uL)
Answer with a number only, understood to be in x10E3/uL.

Example compounds with recorded PLATELET COUNT:
CCN(CC)CC#CCOC(=O)C(O)(c1ccccc1)C1CCCCC1 (stereo unspecified) ... 1325.67
Nc1ccc(S(=O)(=O)Nc2nccs2)cc1 ... 1141
CNS(=O)(=O)Cc1ccc2[nH]cc(CCN(C)C)c2c1 ... 1186.67
Cc1c(N(C)CS(=O)(=O)[O-])c(=O)n(-c2ccccc2)n1C.[Na+] [DIPYRONE SODIUM] ... 1117
O=P1(N(CCCl)CCCl)NCCCO1 (stereo unspecified) [CYCLOPHOSPHAMIDE ANHYDROUS] ... 1144.83
CN1C2CCCC1CC(NC(=O)c1nn(C)c3ccccc13)C2 (stereo unspecified) ... 1141
CC(C)(C)NC[C@H](O)COc1nsnc1N1CCOCC1 ... 1141
CCOC(N)=O ... 1044
O=C(O)c1cccnc1 ... 1285.33
CCCCCCCCCCCCCCCC[n+]1ccccc1.[Br-] ... 1223.5

We next turn to a different compound, shown below.
Input line: Given `OCCO` , state its recorded PLATELET COUNT.
Output line: 802

----------
Species on record: Rattus norvegicus
Test: DrugMatrix - Regimen: Daily Repeat
Format: toxicity, organism-based, Sprague-Dawley
Parameters: regimen Daily Repeat, gender Male, age 6-8 weeks
Settings: in vivo, po, 0 mg/kg, 120 h, tissue Blood, route oral GAVAGE, dose level Control, time 5 day, […]
We begin with a simple list: items and their reported MEAN CORPUSCULAR HEMOGLOBIN CONCENTRATION.
Answer with a number only, understood to be in G/DL.

OCCN1CCN(CCCN2c3ccccc3Sc3ccc(C(F)(F)F)cc32)CC1 [FLUPHENAZINE] ... 38.95
COc1ncnc(NS(=O)(=O)c2ccc(N)cc2)c1OC [SULFADOXINE] ... 39.62
CC(=O)Nc1nnc(S(N)(=O)=O)s1 [ACETAZOLAMIDE] ... 39.62
C#C[C@]1(O)CC[C@H]2[C@@H]3CCc4cc(O)ccc4[C@H]3CC[C@@]21C [ETHINYL ESTRADIOL] ... 39.73
CC[C@H](C)C(=O)O[C@H]1C[C@@H](C)C=C2C=C[C@H](C)[C@H](CC[C@@H]3C[C@@H](O)CC(=O)O3)[C@H]21 [LOVASTATIN] ... 39.03

Input line: Given CN(CCOc1ccc(CC2SC(=O)NC2=O)cc1)c1ccccn1 (centres undefined) [ROSIGLITAZONE] , state its recorded MEAN CORPUSCULAR HEMOGLOBIN CONCENTRATION.
Output line: 38.42

Input line: Given CC(C)Cc1ccc(CC(=O)O)cc1 [IBUFENAC] , state its recorded MEAN CORPUSCULAR HEMOGLOBIN CONCENTRATION.
Output line: 36.4

Input line: Given CC(CCc1ccc(O)cc1)NCCc1ccc(O)c(O)c1 (centres undefined) [DOBUTAMINE] , state its recorded MEAN CORPUSCULAR HEMOGLOBIN CONCENTRATION.
Output line: 30.77

Input line: Given CCn1cc(C(=O)O)c(=O)c2cc(F)c(N3CCNCC3)nc21 [ENOXACIN] , state its recorded MEAN CORPUSCULAR HEMOGLOBIN CONCENTRATION.
Output line: 39.73

----------
Species on record: Rattus norvegicus
Assay: DrugMatrix - Regimen: Daily Repeat
Format: toxicity, organism-based, Sprague-Dawley
Design: regimen Daily Repeat, gender Male, age 6-8 weeks
Details: in vivo, po, 0 mg/kg, 120 h, tissue Plasma, route oral GAVAGE, dose level Control, time 5 day, vehicle 100 % SALINE
endpoint: LIPASE (u/L)
Answer with a number only, understood to be in u/L.

Example compounds with recorded LIPASE:
CCCc1nn(C)c2c(=O)[nH]c(-c3cc(S(=O)(=O)N4CCN(C)CC4)ccc3OCC)nc12 ... 11.17
CC(=O)OCC(CCn1cnc2cnc(N)nc21)COC(C)=O ... 11.17
Cc1cc(CC(=O)O)n(C)c1C(=O)c1ccc(Cl)cc1 [ZOMEPIRAC] ... 14.67

We next turn to a different compound, shown below.
Input line: Given `Oc1ccccc1O` , state its recorded LIPASE.
Output line: 14.67

----------
Species: Rattus norvegicus
Experiment: DrugMatrix - Regimen: Daily Repeat
Assay type: toxicity, organism-based, Sprague-Dawley
Set-up: regimen Daily Repeat, gender Male, age 6-8 weeks
Settings: in vivo, po, 15 mg/kg, 120 h, tissue Blood, route oral GAVAGE, dose level High, time 5 day, […]
endpoint: ABSOLUTE BASOPHIL (cells/µL)
Answer with a number only, understood to be in cells/µL.

Input line: Given CC(CCc1ccc(O)cc1)NCCc1ccc(O)c(O)c1 (stereo unspecified) , state its recorded ABSOLUTE BASOPHIL.
Output line: 26.7

----------
Species on record: Rattus norvegicus
Assay: DrugMatrix - Regimen: Daily Repeat
Format: toxicity, organism-based, Sprague-Dawley
Parameters: regimen Daily Repeat, gender Male, age 6-8 weeks
Conditions: in vivo, po, 0 mg/kg, 72 h, tissue Plasma, route oral GAVAGE, dose level Control, time 3 day, vehicle .5 % CMC
Mark condition met for CREATINE PHOSPHOKINASE under 300 u/L, condition not met if at or over.

Use the examples below as a reference point.
Nc1cccc(Cl)c1 ... condition not met
C=C(CC)C(=O)c1ccc(OCC(=O)O)c(Cl)c1Cl ... condition met
C[C@@H]1CC[C@H]2[C@@H](C)C(=O)O[C@@H]3O[C@@]4(C)CC[C@@H]1[C@]32OO4 ... condition not met
CC[C@]1(O)CC[C@H]2[C@@H]3CCC4=CCCC[C@@H]4[C@H]3CC[C@@]21C ... condition met
C[C@]12C/C(=C/O)C(=O)C[C@@H]1CC[C@@H]1[C@@H]2CC[C@@]2(C)[C@H]1CC[C@]2(C)O ... condition met

Input line: Is CREATINE PHOSPHOKINASE strictly under 300 u/L for the entry `CN1C(=O)CN=C(c2ccccc2)c2cc(Cl)ccc21` ?
Output line: condition met

Input line: Is CREATINE PHOSPHOKINASE strictly under 300 u/L for the entry `C[C@@H](O)[C@H]1C(=O)N2C(C(=O)O)=C(S[C@@H]3CN[C@H](C(=O)N(C)C)C3)[C@H](C)[C@H]12` ?
Output line: condition not met

Input line: Is CREATINE PHOSPHOKINASE strictly under 300 u/L for the entry COc1ccccc1OCC(O)COC(N)=O (stereo not given) ?
Output line: condition not met

Input line: Is CREATINE PHOSPHOKINASE strictly under 300 u/L for the entry `CO[C@H]1C[C@@H]2CC[C@@H](C)[C@@](O)(O2)C(=O)C(=O)N2CCCC[C@H]2C(=O)O[C@H]([C@H](C)C[C@@H]2CC[C@@H](O)[C@H](OC)C2)CC(=O)[C@H](C)/C=C(\C)[C@@H](O)[C@@H](OC)C(=O)[C@H](C)C[C@H](C)/C=C/C=C/C=C/1C` ?
Output line: condition not met

Input line: Is CREATINE PHOSPHOKINASE strictly under 300 u/L for the entry `CCCCC1C(=O)N(c2ccccc2)N(c2ccccc2)C1=O` ?
Output line: condition not met
